Data origin, for the record: paper PMC7072245

- target under test: T1, Plant Homeodomain (PHD) of ING4 (uniformly 15N enriched (NMR samples))
- T1 chain: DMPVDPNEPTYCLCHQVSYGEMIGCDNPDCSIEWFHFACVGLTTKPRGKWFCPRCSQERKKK
- assay info: NMR titration; 10 µM 15N PHD titrated with peptide, 15% Ficoll 70; 20 mM sodium phosphate pH 6.5, 50 mM NaCl, 1 mM DTT, 25 °C; CSP of W237 amide in 1H-15N HSQC, single site fit
- recorded conditions: both partners purified
Where no end group is shown, it is not given here. [ ]: non-standard residue; d: D form. Lys(Me3) = C[N+](C)(C)CCCC[C@H](N)C(=O)O; Lys(Me2) = CN(C)CCCC[C@H](N)C(=O)O
recorded endpoint: Kd (nM)
The response must be a number in nM with no trailing unit.

Some binders with known Kd results, for comparison:
Record summary for ART[Lys(Me3)]QTARKSTGGKAY (histone H3 N-terminal tail, residues 1-15; extra Tyr residue at the C-terminus for concentration measurement by UV absorbance; also called H3K4me3; H3K4me3 peptide) [histone H3 peptide (residues 1-15 plus C-terminal Tyr) trimethylated at lysine 4] : reported Kd = 400

Record summary for ART[Lys(Me2)]QTARKSTGGKAY (histone H3 N-terminal tail, residues 1-15; extra Tyr residue at the C-terminus for concentration measurement by UV absorbance; also called H3K4me2) [histone H3 peptide (residues 1-15 plus C-terminal Tyr) dimethylated at lysine 4] : reported Kd = 1400

Now, please, on to the next binder.
Record summary for ARTKQTARKSTGGKAY (histone H3 N-terminal tail, residues 1-15; extra Tyr residue at the C-terminus for concentration measurement by UV absorbance; also called H3K4me0; unmethylated histone H3 tail) [histone H3 peptide (residues 1-15 plus C-terminal Tyr), unmethylated at lysine 4] : reported Kd = 100000
